Attribution: the supplement of paper PMC10567573

B1: SLC35F2 (parent)
chain: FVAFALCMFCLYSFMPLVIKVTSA

- Variants of: B1
- testDetails: protein stability index of a GFP-peptide fusion (GPS, HEK-293T) (PSI 1-6); higher = more stable;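 also: lentivirally expressed fusions sorted by FACS into six bins by GFP to DsRed ratio, PSI derived from sequencing read proportions per bin multiplied by bin number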
- conditionParameters: c terminus: a fixed tail appended
I would appreciate it if you labelled entries T when protein stability index is 3 or higher, otherwise F.

seqText: FVATALCMFCLYSFMPLVIKVTSA [F4T]
labelValue: T

seqText: FVAFALCMFCLYSFSPLVIKVTSA [M15S]
labelValue: F

In: In plain terms: is recorded protein stability index at least 3 for FVAFALCMFHLYSFMPLVIKVTSA [C10H] ?
Out: F

In: Okay, and FVAFALCMFCRYSFMPLVIKVTSA [L11R] ?
Out: F

In: Okay, and FVAFALCMFCLYSFMPLVIKVASA [T22A] ?
Out: F

In: Okay, and FVAFALCMFCLYSFMSLVIKVTSA [P16S] ?
Out: T

In: Okay, and FVAFALCMFCLYSFMPLVIKVTSC [A24C] ?
Out: F

In: Okay, and FVAFALCMFCLYSFMPTVIKVTSA [L17T] ?
Out: F
